Tested on: Jurkat
methodNotes: cytotoxicity relative to DMSO, 18 h (ratio); higher = less cell death (drugs called cytotoxic fall below 1)
studyConditions: 10000 nM
readoutLabel: cytotoxicity
Give a plain numeric answer without units written out.

Example results:
molecule	cytotoxicity
Nc1nc2[nH]cc(CCc3ccc(C(=O)NC(CCC(=O)O)C(=O)O)cc3)c2c(=O)[nH]1 (configuration not stated)	0.75
CC(C)(C)c1nc(-c2cccc(NS(=O)(=O)c3c(F)cccc3F)c2F)c(-c2ccnc(N)n2)s1	0.863
COc1ccc(C2=NC(c3ccc(Cl)cc3)C(c3ccc(Cl)cc3)N2C(=O)N2CCNC(=O)C2)c(OC(C)C)c1 (configuration not stated)	0.917
CCN1CCN(Cc2ccc(Nc3ncc(F)c(-c4cc(F)c5nc(C)n(C(C)C)c5c4)n3)nc2)CC1	0.718
Cc1nc(-c2cccnc2)sc1C(=O)Nc1ccccc1-c1cn2c(CN3CCOCC3)csc2n1	1.05
O=c1cc(-c2ccccc2F)[nH]c2cc3c(cc12)OCO3	0.461

Please turn your attention to the following entry.
Exam item: What reported cytotoxicity corresponds to CCN(CC)CCNC(=O)c1c(C)[nH]c(C=C2C(=O)Nc3ccc(F)cc32)c1C on Jurkat?
Marked response: 0.546

* * *

// values below are reported cytotoxicity
Tested on: Jurkat
methodNotes: cytotoxicity relative to DMSO, 18 h (ratio); higher = less cell death (drugs called cytotoxic fall below 1)
studyConditions: 1 nM

compound	cytotoxicity
COc1cc(C)[nH]c(=O)c1CNC(=O)c1c(C)n(C(C)C2CCN(CC(F)(F)F)CC2)c2ccccc12 (stereo not given)	1
CCN(c1cc(-c2ccc(CN3CCOCC3)cc2)cc(C(=O)NCc2c(C)cc(C)[nH]c2=O)c1C)C1CCOCC1	0.997
COC1CC2CCC(C)C(O)(O2)C(=O)C(=O)N2CCCCC2C(=O)OC(C(C)CC2CCC(OCCO)C(OC)C2)CC(=O)C(C)C=C(C)C(O)C(OC)C(=O)C(C)CC(C)C=CC=CC=C1C (stereo not given)	0.853
CCN(CC)CCNC(=O)c1c(C)[nH]c(C=C2C(=O)Nc3ccc(F)cc32)c1C	0.992
Cc1c(Cn2c(C)nc3c(C(=O)O)cc(N4CCOCC4)cc32)cccc1C(F)(F)F	0.881
COc1ccc(-c2cc3c(C)nc(N)nc3n(C3CCC(OCCO)CC3)c2=O)cn1 (stereo not given)	1.02

Exam item: What value of cytotoxicity has been recorded for this entry: Cn1cnc2c(F)c(Nc3ccc(Br)cc3Cl)c(C(=O)NOCCO)cc21
Marked response: 1.01

Exam item: Let us now turn to Nc1nc2cc(CCC3CC(n4ccc5c(N)ncnc54)C(O)C3O)ccc2cc1Br (stereo not given)
Marked response: 0.949

* * *

Quick list: cytotoxicity per entry.
Tested on: Jurkat
methodNotes: cytotoxicity relative to DMSO, 18 h (ratio); higher = less cell death (drugs called cytotoxic fall below 1)
studyConditions: 10000 nM

Worked cases, cytotoxicity given:
compound	readoutLabel	recordedValue
COc1cc2c(c(OC)c1OC)-c1ccc(OC)c(=O)cc1C(NC(C)=O)CC2 (stereo not drawn) [Colchicine]	cytotoxicity	0.539
COc1cc(N2CCC(N3CCN(C)CC3)CC2)ccc1Nc1ncc(Cl)c(Nc2ccccc2P(C)(C)=O)n1 [Brigatinib]	cytotoxicity	0.565

Exam item: I would be grateful if you could share the reported cytotoxicity for CC=C1NC(=O)C2CSSCCC=CC(CC(=O)NC(C(C)C)C(=O)N2)OC(=O)C(C(C)C)NC1=O (stereo not drawn) [Romidepsin] .
Marked response: 1.06

Exam item: Next compound: COc1ccc(-c2ccc3c(N4CCOCC4C)nc(N4CCOCC4C)nc3n2)cc1CO (stereo not drawn) [AZD-8055]
Marked response: 0.823

Exam item: Further, for CC(C)(C)c1cnc(CSc2cnc(NC(=O)C3CCNCC3)s2)o1 [SNS-032] ?
Marked response: 0.657

Exam item: Another: Cc1[nH]c2ccccc2c1CCNCc1ccc(C=CC(=O)NO)cc1 [Panobinostat]
Marked response: 0.921

Exam item: Same lookup for COc1ccc(Cl)c(Nc2nc3ccccc3nc2NS(=O)(=O)c2cccc(NC(=O)C(C)(C)N)c2)c1 [Pilaralisib] , please.
Marked response: 0.942

Exam item: Okay, and COc1ccc(-c2nc(N3CCOCC3)c3sc(CN(C)c4ncc(C(=O)NO)cn4)cc3n2)cn1 [Fimepinostat] ?
Marked response: 0.892
